# Study target: UniProt:P48736
# Protocol details: Enzyme Assay
Measurement kind: IC50 (nM)

The cases that follow already have their IC50 on record.
{"Molecule": "O=C(CC1CCCCC1)N1CCC(n2nc(C(=O)N3CCOCC3)c3c2-c2ccccc2S(=O)(=O)C3)C1 (stereo not drawn)", "Study target": "UniProt:P48736", "IC50, nM": 711}
{"Molecule": "O=C(c1nn(-c2ccccc2)c2c1CS(=O)(=O)c1cc(C(F)(F)F)ccc1-2)N1CCOCC1", "Study target": "UniProt:P48736", "IC50, nM": 3060}
{"Molecule": "COc1ccc2c(c1)S(=O)(=O)Cc1c(C(=O)N3CCOCC3)nn([C@H]3CCCN(CCN4CC(F)(F)C4)C3)c1-2", "Study target": "UniProt:P48736", "IC50, nM": 15}
{"Molecule": "COc1ccc(Cn2nc(C(=O)N3CCOCC3)c3c2-c2ccccc2S(=O)(=O)C3)cc1", "Study target": "UniProt:P48736", "IC50, nM": 459}

[1] O=C(c1nn(CC2CCCO2)c2c1CS(=O)(=O)c1ccccc1-2)N1CCOCC1 (stereo not drawn)
[2] O=C(c1nn(C2CCCN(CCN3CCCC(F)(F)C3)C2)c2c1CS(=O)(=O)c1ccccc1-2)N1CCOCC1 (stereo not drawn)
Which numeric IC50 is bigger, that of 1 or that of 2 ? Pick one; state its label.
1

[I] O=C(c1nn(Cc2cnccn2)c2c1CS(=O)(=O)c1ccccc1-2)N1CCOCC1
[II] C[C@@H]1CN(CCN2CCC[C@H](n3nc(C(=O)N4CCOCC4)c4c3-c3ccccc3S(=O)(=O)C4)C2)C[C@H](C)O1
Which numeric IC50 is bigger, that of I or that of II ? Pick one; state its label.
I
